Values compiled from patent US9371321B2.

- SYSTEM: PI3Kδ (recombinant GST-tagged PIK3CD co-expressed with PIK3R1, p85α) (Homo sapiens)
- Construct: The protein is full length and co-expressed with untagged PIK3R1; GST
- Sequence (O00329 whole entry): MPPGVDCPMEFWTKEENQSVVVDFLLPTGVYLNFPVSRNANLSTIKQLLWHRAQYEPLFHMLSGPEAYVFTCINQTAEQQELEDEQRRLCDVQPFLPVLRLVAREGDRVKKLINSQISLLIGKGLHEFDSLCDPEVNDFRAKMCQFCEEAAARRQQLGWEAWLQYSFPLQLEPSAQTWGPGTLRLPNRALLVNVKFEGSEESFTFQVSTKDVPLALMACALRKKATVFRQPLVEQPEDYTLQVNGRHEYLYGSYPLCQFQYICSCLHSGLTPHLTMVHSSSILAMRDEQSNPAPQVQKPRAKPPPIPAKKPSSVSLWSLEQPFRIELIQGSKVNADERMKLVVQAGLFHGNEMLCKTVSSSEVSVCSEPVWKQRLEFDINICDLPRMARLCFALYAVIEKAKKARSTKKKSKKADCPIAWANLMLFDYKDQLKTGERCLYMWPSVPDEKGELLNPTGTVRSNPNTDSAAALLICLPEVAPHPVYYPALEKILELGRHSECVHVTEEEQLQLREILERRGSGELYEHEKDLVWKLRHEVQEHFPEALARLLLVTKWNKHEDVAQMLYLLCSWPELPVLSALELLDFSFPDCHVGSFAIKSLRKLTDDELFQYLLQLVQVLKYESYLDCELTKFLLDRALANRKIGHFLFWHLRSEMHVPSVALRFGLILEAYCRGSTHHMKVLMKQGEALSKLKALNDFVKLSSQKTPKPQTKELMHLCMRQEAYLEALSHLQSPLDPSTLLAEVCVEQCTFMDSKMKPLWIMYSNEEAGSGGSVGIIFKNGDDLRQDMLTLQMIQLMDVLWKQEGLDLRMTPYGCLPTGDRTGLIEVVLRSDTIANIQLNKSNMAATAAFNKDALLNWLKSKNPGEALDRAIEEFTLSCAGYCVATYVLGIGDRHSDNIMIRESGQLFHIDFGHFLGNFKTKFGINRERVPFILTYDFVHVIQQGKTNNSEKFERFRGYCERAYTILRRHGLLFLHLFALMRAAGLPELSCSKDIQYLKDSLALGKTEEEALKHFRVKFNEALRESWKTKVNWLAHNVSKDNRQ
- Sequence (P27986 whole entry partner): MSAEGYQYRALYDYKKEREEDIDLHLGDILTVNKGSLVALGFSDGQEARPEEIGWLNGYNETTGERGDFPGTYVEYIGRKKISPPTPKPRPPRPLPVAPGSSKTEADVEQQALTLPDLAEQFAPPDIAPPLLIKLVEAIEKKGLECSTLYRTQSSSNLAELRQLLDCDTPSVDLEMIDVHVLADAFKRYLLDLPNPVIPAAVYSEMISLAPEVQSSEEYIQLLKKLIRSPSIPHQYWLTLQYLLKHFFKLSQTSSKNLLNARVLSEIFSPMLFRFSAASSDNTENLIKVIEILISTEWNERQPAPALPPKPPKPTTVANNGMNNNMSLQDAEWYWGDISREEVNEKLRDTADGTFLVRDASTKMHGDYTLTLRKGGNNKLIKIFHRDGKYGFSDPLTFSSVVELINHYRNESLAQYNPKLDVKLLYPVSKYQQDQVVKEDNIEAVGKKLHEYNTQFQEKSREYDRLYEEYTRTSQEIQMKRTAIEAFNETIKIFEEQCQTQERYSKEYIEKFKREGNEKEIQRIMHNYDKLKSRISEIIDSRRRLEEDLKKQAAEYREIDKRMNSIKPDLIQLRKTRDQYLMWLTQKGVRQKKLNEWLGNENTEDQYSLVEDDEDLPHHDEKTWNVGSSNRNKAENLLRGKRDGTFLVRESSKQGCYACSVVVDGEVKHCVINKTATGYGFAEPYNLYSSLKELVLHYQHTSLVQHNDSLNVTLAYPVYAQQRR
- EXPERIMENTAL PROTOCOL: modified PIK3CD Adapta TR-FRET kinase assay (PI3Kδ inhibition)
- DETAILS: 2 μM ATP, 50 μM PIP2, room temperature, 1 hour
pIC50: −log10 of the molar value.

{"columns": ["MOLECULE", "SYSTEM", "pIC50"],
 "data": [
  ["Cc1nc(N)nc(N[C@@H](C)c2nc3ccn(C)c3cc2C2CCC(N)CC2)c1C#N (mixture of isomers)", "PI3Kδ (recombinant GST-tagged PIK3CD co-expressed with PIK3R1, p85α) (Homo sapiens)", 8.77],
  ["Cc1nc(N)nc(N[C@@H](C)c2nc3ccn(C)c3cc2NC2CCNCC2)c1C#N", "PI3Kδ (recombinant GST-tagged PIK3CD co-expressed with PIK3R1, p85α) (Homo sapiens)", 8.26],
  ["Cc1nc(N)nc(N[C@@H](C)c2nc3ccn(C)c3cc2[C@@H]2CCNC2)c1C#N (single isomer, unassigned)", "PI3Kδ (recombinant GST-tagged PIK3CD co-expressed with PIK3R1, p85α) (Homo sapiens)", 8.46]
]}
